Ref: patent US7214669B2

system: Human recombinant MMP3 (Homo sapiens, UniProt P08254)
Sequence (P08254 100-477): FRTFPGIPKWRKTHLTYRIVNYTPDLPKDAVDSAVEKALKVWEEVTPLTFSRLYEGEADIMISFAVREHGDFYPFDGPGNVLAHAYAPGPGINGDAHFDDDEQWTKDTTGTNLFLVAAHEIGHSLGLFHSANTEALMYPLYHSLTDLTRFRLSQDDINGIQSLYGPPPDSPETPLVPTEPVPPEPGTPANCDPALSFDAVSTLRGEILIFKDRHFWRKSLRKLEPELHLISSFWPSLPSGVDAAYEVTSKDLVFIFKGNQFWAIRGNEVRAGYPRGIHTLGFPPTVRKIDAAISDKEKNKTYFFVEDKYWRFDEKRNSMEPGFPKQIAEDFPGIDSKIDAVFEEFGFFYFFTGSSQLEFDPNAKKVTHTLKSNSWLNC
assay procedure: MMP3 (Stromelysin 1) inhibition, 14C casein release
settings: 37° C., 16 hours; read-out: MMP-3 inhibitory activity, IC50
pIC50: −log10 of the molar value.
property label: pIC50

Please review the following examples before continuing.
CN(C)c1ccc(O)c2c1CC1CC3CC(O)=C(C(N)=O)C(=O)C3(O)C(O)=C1C2=O (centres unmarked) = 4.27
CC1c2cccc(O)c2C(=O)C2=C(O)C3(O)C(=O)C(C(N)=O)=C(O)CC3C(O)C21 (centres unmarked) = 3.87
C[C@H]1c2c(N)ccc(O)c2C(=O)C2=C(O)[C@]3(O)C(=O)C(C(N)=O)=C(O)C[C@@H]3[C@@H](O)[C@@H]21 = 3.30

I: CC1c2c(N=[N+]=[N-])cc(C(C)(C)C)c(O)c2C(=O)C2=C(O)C3(O)C(=O)C(C(N)=O)=C(O)C(N(C)C)C3C(O)C21 (centres unmarked)
II: CCCCCCN(CCCCCC)c1ccc(O)c2c1C(C)C1C(=C(O)C3(O)C(=O)C(C(N)=O)=C(O)C(N(C)C)C3C1O)C2=O (centres unmarked)
III: CC(=O)Nc1cc(N=[N+]=[N-])c(O)c2c1C(C)C1C(=C(O)C3(O)C(=O)C(C(N)=O)=C(O)C(N(C)C)C3C1O)C2=O (centres unmarked)
IV: CN(C)c1cc(N=[N+]=[N-])c(O)c2c1CC1CC3C(N(C)C)C(O)=C(C(N)=O)C(=O)C3(O)C(O)=C1C2=O (centres unmarked)
Rank by pIC50 (largest to smallest). # the answer lists labels in the order requested IV, I, II, III

---

Here's what we have: pIC50 numbers for MMP2 (Gelatinase A) (Homo sapiens, UniProt P08253).
pIC50: −log10 of the molar value.

C[C@H]1c2c(N(C)C)cc([N+]#N)c(O)c2C(=O)C2=C(O)[C@]3(O)C(=O)C(C(N)=O)=C(O)[C@@H](N(C)C)[C@@H]3[C@@H](O)[C@@H]21 = 3.59
C[C@H]1c2c(N)ccc(O)c2C(=O)C2=C(O)[C@]3(O)C(=O)C(C(N)=O)=C(O)[C@@H](N(C)C)[C@@H]3[C@@H](O)[C@@H]21.O=S(=O)(O)O = < 3.00

// next entry
Lab book: pIC50 of CN(C)c1cc(N)c(O)c2c1CC1CC3C(N(C)C)C(O)=C(C(N)=O)C(=O)C3(O)C(O)=C1C2=O (stereo not drawn) noted as < 3.00

---

system: Human recombinant MMP14 (Homo sapiens)
assay procedure: MMP14 (MTI-MMP) inhibition, 14C collagen release
settings: 35° C., 15 hours; read-out: MMP-14 inhibitory activity, IC50
property label: IC50 (µM)

CC1c2ccc([N+]#N)c(O)c2C(=O)C2=C(O)C3(O)C(=O)C(C(N)=O)=C(O)CC3C(O)C21.O=S(=O)([O-])O (stereo not drawn) [Compound 37] = 41

a: CC(C)Nc1ccc2c(c1O)C(=O)C1=C(O)C3(O)C(=O)C(C(N)=O)=C(O)C(N(C)C)C3C(O)C1C2C (stereo not drawn) [Compound 3]
b: CC1c2c([N+]#N)cc(C(C)(C)C)c(O)c2C(=O)C2=C(O)C3(O)C(=O)C(C(N)=O)=C(O)CC3C(O)C21 (stereo not drawn) [Compound 50]
Smaller IC50 value, a vs b ? Refer to your chosen item by its label in the answer. b
